System: KM12 colon
Assay: NCI tumour cell line growth inhibition, 48 h
value.type: TGI

Asked: Read the entry Cc1cn(C2CC(O)C(Cn3nncc3Cn3nc(Br)c(=O)[nH]c3=O)O2)c(=O)[nH]c1=O (stereo unspecified) and write its reported TGI.
Given back: > 100 µM

Asked: Recall and state the measured TGI for O=[N+]([O-])c1c(O)c2nonc2c2nn(-c3ccccc3)nc12 .
Given back: > 100 µM

Asked: Name the recorded TGI of the compound listed here: CC12CCC(C1)C(C)(C)C2OC(=O)c1ccccc1N (stereo unspecified)
Given back: 38 µM

Asked: Please supply the value of reported TGI for the item CC(=O)NC1C(OCc2ccccc2)OC(CO)C(O)C1OC(C)C(=O)NC(C(=O)NC(CCC(=O)NCCCNc1ccc([N+](=O)[O-])c2[nH]c3ccccc3c(=O)c12)C(N)=O)C(C)C (stereo unspecified)
Given back: > 100 µM

Asked: Provide measured TGI value, entry: C1=CC2C(C3CN(c4ccccc4)N=C13)C1C3C4C=CC21C=CC43 (stereo unspecified)
Given back: > 100 µM

Asked: Kindly indicate its recorded TGI. Item: O=C(Nc1ccc(Br)cc1)C(=O)C(C(=O)c1ccc(Cl)c(Cl)c1)C1OC(=O)c2ccccc21 (stereo unspecified)
Given back: 31.8 µM

Asked: Item O=C(CCCCCNC(=O)c1ccc(Cl)cc1)NO : provide TGI
Given back: > 100 µM

Asked: Give a short answer stating reported TGI for COc1cc2c(cc1OC)C(Cl)C(c1ccc(Br)cc1)=C2Cl (stereo unspecified) .
Given back: 34.6 µM

Asked: Please report the measured TGI for CC1C(c2ccccc2)N(C)C(c2ccccc2)C(C)C1(O)c1ccccc1 (stereo unspecified)
Given back: > 100 µM

Asked: Answer with reported TGI of CC1(C)CCC2=C(O1)c1ccccc1C(=Nc1ccc([N+](=O)[O-])cc1)C2=O
Given back: 28.2 µM

Asked: Kindly indicate its recorded TGI. Item: Cc1nnc(N/N=C/c2ccc([N+](=O)[O-])o2)[nH]c1=O
Given back: > 100 µM

Asked: In one line, give reported TGI of the entry Oc1c(C(c2ccc(F)cc2)N2CCCCC2)ccc2cncnc12 (stereo unspecified) .
Given back: > 100 µM

Asked: Identify measured TGI associated with Cc1cc(OCc2ccc(C(F)(F)F)cc2)c2c(c1)C(=O)C=C(NCCN1CCCC1)C2=O
Given back: 15.4 µM

Asked: For the compound CC1(C)C2CC3C(C)(C2)C31c1cc(Cl)ccc1N (stereo unspecified) , give its reported TGI.
Given back: 28.5 µM

Asked: Output measured TGI for this item: COc1cc(/C=C2\[C@@H]3NC(Cc4c(OC)c(C)c(OC)c(OC)c43)C(=O)N2Cc2ccccc2)c(OC)c(C)c1OC
Given back: > 100 µM

Asked: Provide only the value of recorded TGI for O=C(CSc1nc2ccc(I)cc2c(=O)n1Cc1ccccc1)Nc1ccccc1
Given back: > 100 µM

Asked: Return TGI for the following compound: CC(C)(C)NCC(O)c1ccccc1Cl (stereo unspecified)
Given back: > 100 µM

Asked: Fill in TGI for record OC(c1cc(C(F)(F)F)nc2c(Cl)cc(Cl)cc12)C1CCCCN1 (stereo unspecified)
Given back: 19.3 µM

Asked: Look up and state reported TGI for C[Si](C)(C)OC1(C#N)c2ccccc2CCCC12CCCC2 (stereo unspecified)
Given back: > 100 µM

Asked: Supply recorded TGI for CCC(=O)OCOc1ccc(/C=C2\CCC(CN(C)C)C2=O)cc1 (stereo unspecified) here.
Given back: 13 µM

Asked: Give the reported value of TGI for this record: C=CCC1(CN(C)C)CC/C(=C\c2ccc3c(c2)OCO3)C1=O (stereo unspecified)
Given back: > 100 µM

The reported measurements were obtained from PubChem BioAssay (NCI).
